- TESTED TARGET: T1, human IL-18 binding protein (human, UniProt O95998 31-194)
- T1 sequence (looked up): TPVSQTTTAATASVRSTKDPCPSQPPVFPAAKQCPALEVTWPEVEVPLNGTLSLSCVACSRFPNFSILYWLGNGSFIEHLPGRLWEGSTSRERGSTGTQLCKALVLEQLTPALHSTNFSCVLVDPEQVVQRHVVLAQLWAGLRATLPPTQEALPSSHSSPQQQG
- ASSAY PROCEDURE: cell-based or functional assay
Assign labels as follows, please: true for HEK-blue EC50 (pM) + 1000 nM BP below 1 pM; false for HEK-blue EC50 (pM) + 1000 nM BP equal to or exceeding 1 pM.

BINDER	ASSIGNED CLASS
human IL-18 variant G3T/E6K/K53S/M60K (ligand) YFTKLKSKLSVIRNLNDQVLFIDQGNRPLFEDMTDSDMRDNAPRTIFIISMYSDSQPRGKAVTISVKSEKISTLSSENKIISFKEMNPPDNIKDTKSDIIFFQRSVPGHDNKMQFESSSYEGYFLASEKERDLFKLILKKEDELGDRSIMFTVQNED	true
human IL-18 variant G3T/K53A/M60K (ligand) YFTKLESKLSVIRNLNDQVLFIDQGNRPLFEDMTDSDMRDNAPRTIFIISMYADSQPRGKAVTISVKSEKISTLSSENKIISFKEMNPPDNIKDTKSDIIFFQRSVPGHDNKMQFESSSYEGYFLASEKERDLFKLILKKEDELGDRSIMFTVQNED	false
human IL-18 variant G3T/E6K/K53A/M60K (ligand) YFTKLKSKLSVIRNLNDQVLFIDQGNRPLFEDMTDSDMRDNAPRTIFIISMYADSQPRGKAVTISVKSEKISTLSSENKIISFKEMNPPDNIKDTKSDIIFFQRSVPGHDNKMQFESSSYEGYFLASEKERDLFKLILKKEDELGDRSIMFTVQNED	true
human IL-18 variant G3T/K53S/M60K (ligand) YFTKLESKLSVIRNLNDQVLFIDQGNRPLFEDMTDSDMRDNAPRTIFIISMYSDSQPRGKAVTISVKSEKISTLSSENKIISFKEMNPPDNIKDTKSDIIFFQRSVPGHDNKMQFESSSYEGYFLASEKERDLFKLILKKEDELGDRSIMFTVQNED	false
human IL-18 variant G3V/M60K (ligand) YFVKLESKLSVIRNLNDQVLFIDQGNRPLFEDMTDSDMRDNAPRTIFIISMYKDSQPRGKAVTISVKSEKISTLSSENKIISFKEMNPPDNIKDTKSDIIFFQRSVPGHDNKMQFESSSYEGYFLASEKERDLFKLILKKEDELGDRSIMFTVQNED	false
